test system: HL-60; assay: Cytotoxicity against human HL60 cells after 48 hrs; format: functional; settings: HL-60, 48 h
Below is a list of entries, each paired with its recorded CC50 value.
Quick reminder: number only, in nM, skip the unit.

O=C1/C(=C/c2ccccc2)CN(C(=O)C(=O)N2C/C(=C\c3ccccc3)C(=O)/C(=C/c3ccccc3)C2)C/C1=C\c1ccccc1 | 110
O=C1/C(=C/c2ccccc2)CN(C(=O)CCCCCCC(=O)N2C/C(=C\c3ccccc3)C(=O)/C(=C/c3ccccc3)C2)C/C1=C\c1ccccc1 | 1300

# lookup: CC50 of O=C1/C(=C/c2ccccc2)CN(C(=O)CCC(=O)N2C/C(=C\c3ccccc3)C(=O)/C(=C/c3ccccc3)C2)C/C1=C\c1ccccc1
410

Now consider O=C1/C(=C/c2ccccc2)CN(C(=O)c2cccc(C(=O)N3C/C(=C\c4ccccc4)C(=O)/C(=C/c4ccccc4)C3)c2)C/C1=C\c1ccccc1 .
6600

====

test system: HSC-3; assay: Cytotoxicity against human HSC3 cells after 48 hrs; type: functional; settings: HSC-3, 48 h
Here the recorded CC50 is given for each entry.
The response must be a number in nM with no trailing unit.

Worked cases, CC50 given:
O=C1/C(=C/c2ccccc2)CN(C(=O)C#CC(=O)N2C/C(=C\c3ccccc3)C(=O)/C(=C/c3ccccc3)C2)C/C1=C\c1ccccc1 | 490
O=C1/C(=C/c2ccccc2)CN(C(=O)CC(=O)N2C/C(=C\c3ccccc3)C(=O)/C(=C/c3ccccc3)C2)C/C1=C\c1ccccc1 | 46
O=C1/C(=C/c2ccccc2)CN(C(=O)/C=C/C=C/C(=O)N2C/C(=C\c3ccccc3)C(=O)/C(=C/c3ccccc3)C2)C/C1=C\c1ccccc1 | 8500

Reported CC50, compound O=C1/C(=C/c2ccccc2)CN(C(=O)c2ccccc2C(=O)N2C/C(=C\c3ccccc3)C(=O)/C(=C/c3ccccc3)C2)C/C1=C\c1ccccc1 : ____
76

====

Below, each entry is listed with its recorded Ratio.
tested on: HSC-2; assay: Selectivity index, ratio of CC50 for human normal cells to CC50 for human HSC2 cells; format: functional

These solved cases illustrate the format of a correct answer.
O=C1/C(=C/c2ccccc2)CN(C(=O)c2cccc(C(=O)N3C/C(=C\c4ccccc4)C(=O)/C(=C/c4ccccc4)C3)c2)C/C1=C\c1ccccc1 | 11.3
O=C1/C(=C/c2ccccc2)CN(C(=O)/C=C/C=C/C(=O)N2C/C(=C\c3ccccc3)C(=O)/C(=C/c3ccccc3)C2)C/C1=C\c1ccccc1 | 13.5
O=C1/C(=C/c2ccccc2)CN(C(=O)CCCC(=O)N2C/C(=C\c3ccccc3)C(=O)/C(=C/c3ccccc3)C2)C/C1=C\c1ccccc1 | 34.8

So what does the record say about Ratio for N[C@@H](Cc1ccc(N(CCCl)CCCl)cc1)C(=O)O ?
24.1

Thanks! And O=C1/C(=C/c2ccccc2)CN(C(=O)CCC(=O)N2C/C(=C\c3ccccc3)C(=O)/C(=C/c3ccccc3)C2)C/C1=C\c1ccccc1 ?
92.6

Same again, this time with O=C1/C(=C/c2ccccc2)CN(C(=O)C#CC(=O)N2C/C(=C\c3ccccc3)C(=O)/C(=C/c3ccccc3)C2)C/C1=C\c1ccccc1
41.4

Lookup O=C1/C(=C/c2ccccc2)CN(C(=O)C(=O)N2C/C(=C\c3ccccc3)C(=O)/C(=C/c3ccccc3)C2)C/C1=C\c1ccccc1
38.4

Also O=C1/C(=C/c2ccccc2)CN(C(=O)c2ccccc2C(=O)N2C/C(=C\c3ccccc3)C(=O)/C(=C/c3ccccc3)C2)C/C1=C\c1ccccc1 ?
189

Subsequent entry: O=C1/C(=C/c2ccccc2)CN(C(=O)CCCCCCC(=O)N2C/C(=C\c3ccccc3)C(=O)/C(=C/c3ccccc3)C2)C/C1=C\c1ccccc1
61.2

Also need O=C1/C(=C/c2ccccc2)CN(C(=O)/C=C/C(=O)N2C/C(=C\c3ccccc3)C(=O)/C(=C/c3ccccc3)C2)C/C1=C\c1ccccc1 , thanks.
191

One more molecule: O=C1/C(=C/c2ccccc2)CN(C(=O)CC(=O)N2C/C(=C\c3ccccc3)C(=O)/C(=C/c3ccccc3)C2)C/C1=C\c1ccccc1
18.4
